Readings of EC50 for the listed binders
- target.system: T1, EBOV Mayinga strain GP ectodomain containing the glycan cap and mucin-like domain (Ebola virus, Mayinga strain, UniProt Q05320 33-650)
- T1 chain: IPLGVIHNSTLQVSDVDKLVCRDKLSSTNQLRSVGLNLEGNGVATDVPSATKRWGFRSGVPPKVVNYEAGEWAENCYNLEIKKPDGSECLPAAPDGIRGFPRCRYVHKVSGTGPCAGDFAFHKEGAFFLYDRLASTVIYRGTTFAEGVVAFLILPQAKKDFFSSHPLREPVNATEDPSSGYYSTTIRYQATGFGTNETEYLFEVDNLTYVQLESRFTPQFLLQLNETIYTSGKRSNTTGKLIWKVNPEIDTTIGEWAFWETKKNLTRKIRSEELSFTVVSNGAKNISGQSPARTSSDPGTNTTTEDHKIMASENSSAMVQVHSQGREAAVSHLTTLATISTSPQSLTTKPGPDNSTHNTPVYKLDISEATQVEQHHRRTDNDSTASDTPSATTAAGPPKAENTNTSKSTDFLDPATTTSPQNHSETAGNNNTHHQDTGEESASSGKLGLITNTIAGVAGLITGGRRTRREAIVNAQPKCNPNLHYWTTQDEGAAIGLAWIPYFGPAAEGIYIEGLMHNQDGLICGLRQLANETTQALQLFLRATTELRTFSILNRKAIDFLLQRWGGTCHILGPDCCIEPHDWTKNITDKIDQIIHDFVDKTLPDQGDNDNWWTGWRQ
- test.protocol: ELISA

Below, each entry is followed by its recorded EC50 result.
>  <binder>
MR201 (antibody, V domains shown) VH: QLQLQESGPGLVKPSETLFLSCAVSGGSIAGSTHYWGWIRQPPGKGLEWIGSISESGSTYHNPSLKSRVTISVDTSKNYFSLNLSSVTAADTAVYYCARIVGQSGTFIYYYYAMDVWGTGTLVTVSS VL: DIQLTQSPSFLSASVGDRVTITCRASQGISSYLAWYQQKPGKAPKLLIYAASTLQRGVPSRFSGSGSGTEFTLTISSLQPEDSATYYCQQLNSYLALIFGGGT

>  <value.measured>
> 1000 µg/mL

$$$$
>  <binder>
MR229 (antibody) chain 1: EVQLVESGGGLVKPGGSLRISCVTSGFTFGDYAMSWFRQAPGKGLEWVGFIRNKGYGGTIDYAASVKGRFTISRDDSKSIAYLQMNSLKTEDTAVYYCTGVRLHYDFWSGYDDDSFHIWGQGTM chain 2: DGVMTQSPLSLPVTPGQPASISCRSTQSLVHGDGDTYLYWFQQRPGQSPRRLIYKVSNRDSGVPDRFSGSGSGTDFTLKISRVEAEDVGVYYCMQSTHWPPTFGQ

>  <value.measured>
> 1000 µg/mL

$$$$

From here, focus on the item given below.
Qu. Input MR209 (antibody) chain 1: QLQLQESGPGLVKPSETLSLTCTVAGGPITSNNYYWGWIRQSPGKGLEWIGSVYYSGNTYYNPSIKTRVTMSVDTSKSQFSLKLNSVTAADTAVYYCARQFRLLQFVEWLHHFDSWGPGN chain 2: SYVLTQPPSVSVAPGQTARIPCGGNDIANKRVHWYQQKPGQAPMLVVYDDGDRPSGIPERFSGSNSGNTATLTISRVEAGDEADYYCQVWENSSDLCVVFGGGTKLTVL , output reported EC50.
Ans. > 1000 µg/mL
